target: T1, membrane-bound full-length human CD89 (human, UniProt P24071 22-287); test: FACS, HEK293F-huCD89, unlabeled Ab 10 ug/mL first; competitor MIP8a-PE
T1 construct: on stably or transiently transfected HEK293F cells; also called FcalphaRI; huCD89
Measurement name: % blocking of MIP8a-PE binding

>>> recorded_result("mouse anti-human CD89-specific antibody 8F3 (antibody, mouse IgG1, V domains shown) VH: EVQLVESGGGLVKPGGSLKLSCAASGFTFSNYGMSWVRQTPDKRLEWVATMHSGGTYTYYPDNVKGRFTISRDNAKNNLYLQMSSLRSEDTAMYYCARETGLYDGLFDFWGQGTTLTVSS VL: DVQITQSPSYLAASPGETITINCRASKTISKYLAWYQEKPGKTNMLLIYSGSTLQSGVPSRFSGSGSGTDFTLTISSLEPEDLAMYYCQQHDEYPWTFGGGTKLEIK")
"< 25%"

Moving on to another binder below.
// query % blocking of MIP8a-PE binding value for entry mouse anti-human CD89-specific antibody 30C7 (antibody, mouse IgG1, V domains shown) VH: QVQLQQSGPELVRPGVSVKISCKGSGYTFTDYVMHWVKQSHAKSLEWIGVISTYSGNTNYNQKFKGKATMTVDKSSSTAYMELARLTSEDSAIYYCARESDGYYFDYWGQGTTLTVSS VL: DIVMSQSPSSLAVSAGEKVTMSCKSSQSLLNSRTRKNYLAWYQQKPGQSPKLLIYWASTRESGVPDRFTGSGSGTDFTLTISSVQAEDLAVYYCKQSYNLMYTFGGGTKLEIK
> 90%
